- target.under.test: Sodium-dependent dopamine transporter (Rattus norvegicus, UniProt P23977)
- Sequence (P23977 whole entry): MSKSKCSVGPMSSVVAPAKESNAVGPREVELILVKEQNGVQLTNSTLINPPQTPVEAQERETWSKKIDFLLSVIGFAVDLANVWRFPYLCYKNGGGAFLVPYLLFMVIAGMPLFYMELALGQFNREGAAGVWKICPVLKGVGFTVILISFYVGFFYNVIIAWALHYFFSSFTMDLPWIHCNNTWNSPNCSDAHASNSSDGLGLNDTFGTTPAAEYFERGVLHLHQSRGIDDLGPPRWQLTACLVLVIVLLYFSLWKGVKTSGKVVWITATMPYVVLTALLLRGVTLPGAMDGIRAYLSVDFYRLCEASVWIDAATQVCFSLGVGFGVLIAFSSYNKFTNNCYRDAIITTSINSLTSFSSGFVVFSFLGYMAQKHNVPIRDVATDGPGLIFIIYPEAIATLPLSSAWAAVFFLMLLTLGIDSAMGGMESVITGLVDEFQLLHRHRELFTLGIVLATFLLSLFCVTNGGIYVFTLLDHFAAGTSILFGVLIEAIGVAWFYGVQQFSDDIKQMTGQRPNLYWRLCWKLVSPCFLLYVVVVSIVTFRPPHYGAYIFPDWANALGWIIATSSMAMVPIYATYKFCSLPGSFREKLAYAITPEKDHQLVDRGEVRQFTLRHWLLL
pKi: −log10 of the molar value.
Please note: Condition met applies when pKi is 7 or greater, and Condition not met applies otherwise.

• OC1CCCCC1CN1CCN(CCOC(c2ccccc2)c2ccccc2)CC1 (stereo not given) = Condition not met
• COc1ccc2c(c1)CCC(CN1CCN(CCOC(c3ccc(F)cc3)c3ccc(F)cc3)CC1)=C2 = Condition met
• O=C(CCN1CCN(CCOC(c2ccccc2)c2ccccc2)CC1)c1ccco1 = Condition not met
• O=C1c2ccccc2CCC1CN1CCN(CCOC(c2ccccc2)c2ccccc2)CC1 (stereo not given) = Condition not met

---

- target.under.test: Sodium-dependent dopamine transporter (Rattus norvegicus, UniProt P23977)
pKi: −log10 of the molar value.
Please note: yes (1) applies when pKi is 7 or greater, and no (0) applies otherwise.

• O=C(CCN1CCN(CCOC(c2ccccc2)c2ccccc2)CC1)c1ccc(Br)cc1 = no (0)
• O=C1CCCCC1CN1CCN(CCOC(c2ccccc2)c2ccccc2)CC1 (stereo not given) = no (0)
• OC1CCCCCC1CN1CCN(CCOC(c2ccc(F)cc2)c2ccc(F)cc2)CC1 (stereo not given) = yes (1)
• O=C1CCCCCC1CN1CCN(CCOC(c2ccc(F)cc2)c2ccc(F)cc2)CC1 (stereo not given) = yes (1)

---

- target.under.test: Sodium-dependent serotonin transporter (Rattus norvegicus, UniProt P31652)
- Sequence (P31652 whole entry): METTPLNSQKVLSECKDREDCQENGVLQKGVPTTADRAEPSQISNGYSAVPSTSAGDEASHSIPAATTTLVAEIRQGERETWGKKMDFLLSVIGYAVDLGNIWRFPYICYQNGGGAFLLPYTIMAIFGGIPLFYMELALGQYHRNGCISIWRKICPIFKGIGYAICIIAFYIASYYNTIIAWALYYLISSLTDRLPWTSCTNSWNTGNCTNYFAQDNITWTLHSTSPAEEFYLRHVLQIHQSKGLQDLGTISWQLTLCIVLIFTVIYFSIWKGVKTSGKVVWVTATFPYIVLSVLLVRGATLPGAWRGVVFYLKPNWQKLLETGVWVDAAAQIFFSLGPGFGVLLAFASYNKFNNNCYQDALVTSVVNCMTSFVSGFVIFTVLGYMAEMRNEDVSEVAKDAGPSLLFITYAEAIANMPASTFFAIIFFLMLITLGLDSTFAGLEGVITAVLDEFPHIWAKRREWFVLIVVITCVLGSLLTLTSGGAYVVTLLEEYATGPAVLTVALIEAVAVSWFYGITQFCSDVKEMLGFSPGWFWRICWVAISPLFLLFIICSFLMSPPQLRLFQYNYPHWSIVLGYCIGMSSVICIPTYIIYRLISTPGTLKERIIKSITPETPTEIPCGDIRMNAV
pKi: −log10 of the molar value.
Reported pKi values for the following compounds.
recorded.metric: pKi

- OC(CCN1CCN(CCOC(c2ccccc2)c2ccccc2)CC1)c1cccc(F)c1 (configuration not stated): 6.04
- O=C(CCN1CCN(CCOC(c2ccc(F)cc2)c2ccc(F)cc2)CC1)c1ccco1: 6.46
- COc1ccc2c(c1)CC[C@@H](CN1CCN(CCOC(c3ccccc3)c3ccccc3)CC1)[C@H]2O: 7.00
- O[C@@H]1c2ccccc2CC[C@H]1CN1CCN(CCOC(c2ccc(F)cc2)c2ccc(F)cc2)CC1: 7.49
- OC(CCN1CCN(CCOC(c2ccc(F)cc2)c2ccc(F)cc2)CC1)c1cccc(F)c1 (configuration not stated): 7.28
- OC(CCN1CCN(CCOC(c2ccc(F)cc2)c2ccc(F)cc2)CC1)c1cccs1 (configuration not stated): 7.23
- O=C(CCN1CCN(CCOC(c2ccccc2)c2ccccc2)CC1)c1cccc(F)c1: 5.87
- O=C1CCCC1CN1CCN(CCOC(c2ccc(F)cc2)c2ccc(F)cc2)CC1 (configuration not stated): 6.01
- O[C@H]1c2ccccc2CC[C@H]1CN1CCN(CCOC(c2ccc(F)cc2)c2ccc(F)cc2)CC1: 7.52
- COc1ccc2c(c1)CC[C@@H](CN1CCN(CCOC(c3ccccc3)c3ccccc3)CC1)[C@@H]2O: 7.03
- OC1CCCC1CN1CCN(CCOC(c2ccccc2)c2ccccc2)CC1 (configuration not stated): 5.66
- O[C@@H]1c2ccccc2CC[C@H]1CN1CCN(CCOC(c2ccccc2)c2ccccc2)CC1: 6.36
- OC1CCCCCC1CN1CCN(CCOC(c2ccc(F)cc2)c2ccc(F)cc2)CC1 (configuration not stated): 6.32
- COc1ccc2c(c1)CCC(CN1CCN(CCOC(c3ccc(F)cc3)c3ccc(F)cc3)CC1)=C2: 7.24
- O=C1CCCCC1CN1CCN(CCOC(c2ccccc2)c2ccccc2)CC1 (configuration not stated): 5.48
- COc1ccc2c(c1)CCC(CN1CCN(CCOC(c3ccc(F)cc3)c3ccc(F)cc3)CC1)C2=O (configuration not stated): 8.52
- O[C@H]1c2ccccc2CC[C@H]1CN1CCN(CCOC(c2ccccc2)c2ccccc2)CC1: 6.30
- OC(CCN1CCN(CCOC(c2ccccc2)c2ccccc2)CC1)c1cccs1 (configuration not stated): 6.16
- O=C(CCN1CCN(CCOC(c2ccccc2)c2ccccc2)CC1)c1ccc(Br)cc1: 5.59
- OC(CCN1CCN(CCOC(c2ccc(F)cc2)c2ccc(F)cc2)CC1)c1ccco1 (configuration not stated): 6.82
- O=C(CCN1CCN(CCOC(c2ccccc2)c2ccccc2)CC1)c1cccs1: 5.91
- COc1ccc2c(c1)CCC(CN1CCN(CCOC(c3ccccc3)c3ccccc3)CC1)C2=O (configuration not stated): 7.15
